Target: Voltage-dependent T-type calcium channel subunit alpha-1H (Homo sapiens, UniProt O95180)
Sequence (O95180 whole entry): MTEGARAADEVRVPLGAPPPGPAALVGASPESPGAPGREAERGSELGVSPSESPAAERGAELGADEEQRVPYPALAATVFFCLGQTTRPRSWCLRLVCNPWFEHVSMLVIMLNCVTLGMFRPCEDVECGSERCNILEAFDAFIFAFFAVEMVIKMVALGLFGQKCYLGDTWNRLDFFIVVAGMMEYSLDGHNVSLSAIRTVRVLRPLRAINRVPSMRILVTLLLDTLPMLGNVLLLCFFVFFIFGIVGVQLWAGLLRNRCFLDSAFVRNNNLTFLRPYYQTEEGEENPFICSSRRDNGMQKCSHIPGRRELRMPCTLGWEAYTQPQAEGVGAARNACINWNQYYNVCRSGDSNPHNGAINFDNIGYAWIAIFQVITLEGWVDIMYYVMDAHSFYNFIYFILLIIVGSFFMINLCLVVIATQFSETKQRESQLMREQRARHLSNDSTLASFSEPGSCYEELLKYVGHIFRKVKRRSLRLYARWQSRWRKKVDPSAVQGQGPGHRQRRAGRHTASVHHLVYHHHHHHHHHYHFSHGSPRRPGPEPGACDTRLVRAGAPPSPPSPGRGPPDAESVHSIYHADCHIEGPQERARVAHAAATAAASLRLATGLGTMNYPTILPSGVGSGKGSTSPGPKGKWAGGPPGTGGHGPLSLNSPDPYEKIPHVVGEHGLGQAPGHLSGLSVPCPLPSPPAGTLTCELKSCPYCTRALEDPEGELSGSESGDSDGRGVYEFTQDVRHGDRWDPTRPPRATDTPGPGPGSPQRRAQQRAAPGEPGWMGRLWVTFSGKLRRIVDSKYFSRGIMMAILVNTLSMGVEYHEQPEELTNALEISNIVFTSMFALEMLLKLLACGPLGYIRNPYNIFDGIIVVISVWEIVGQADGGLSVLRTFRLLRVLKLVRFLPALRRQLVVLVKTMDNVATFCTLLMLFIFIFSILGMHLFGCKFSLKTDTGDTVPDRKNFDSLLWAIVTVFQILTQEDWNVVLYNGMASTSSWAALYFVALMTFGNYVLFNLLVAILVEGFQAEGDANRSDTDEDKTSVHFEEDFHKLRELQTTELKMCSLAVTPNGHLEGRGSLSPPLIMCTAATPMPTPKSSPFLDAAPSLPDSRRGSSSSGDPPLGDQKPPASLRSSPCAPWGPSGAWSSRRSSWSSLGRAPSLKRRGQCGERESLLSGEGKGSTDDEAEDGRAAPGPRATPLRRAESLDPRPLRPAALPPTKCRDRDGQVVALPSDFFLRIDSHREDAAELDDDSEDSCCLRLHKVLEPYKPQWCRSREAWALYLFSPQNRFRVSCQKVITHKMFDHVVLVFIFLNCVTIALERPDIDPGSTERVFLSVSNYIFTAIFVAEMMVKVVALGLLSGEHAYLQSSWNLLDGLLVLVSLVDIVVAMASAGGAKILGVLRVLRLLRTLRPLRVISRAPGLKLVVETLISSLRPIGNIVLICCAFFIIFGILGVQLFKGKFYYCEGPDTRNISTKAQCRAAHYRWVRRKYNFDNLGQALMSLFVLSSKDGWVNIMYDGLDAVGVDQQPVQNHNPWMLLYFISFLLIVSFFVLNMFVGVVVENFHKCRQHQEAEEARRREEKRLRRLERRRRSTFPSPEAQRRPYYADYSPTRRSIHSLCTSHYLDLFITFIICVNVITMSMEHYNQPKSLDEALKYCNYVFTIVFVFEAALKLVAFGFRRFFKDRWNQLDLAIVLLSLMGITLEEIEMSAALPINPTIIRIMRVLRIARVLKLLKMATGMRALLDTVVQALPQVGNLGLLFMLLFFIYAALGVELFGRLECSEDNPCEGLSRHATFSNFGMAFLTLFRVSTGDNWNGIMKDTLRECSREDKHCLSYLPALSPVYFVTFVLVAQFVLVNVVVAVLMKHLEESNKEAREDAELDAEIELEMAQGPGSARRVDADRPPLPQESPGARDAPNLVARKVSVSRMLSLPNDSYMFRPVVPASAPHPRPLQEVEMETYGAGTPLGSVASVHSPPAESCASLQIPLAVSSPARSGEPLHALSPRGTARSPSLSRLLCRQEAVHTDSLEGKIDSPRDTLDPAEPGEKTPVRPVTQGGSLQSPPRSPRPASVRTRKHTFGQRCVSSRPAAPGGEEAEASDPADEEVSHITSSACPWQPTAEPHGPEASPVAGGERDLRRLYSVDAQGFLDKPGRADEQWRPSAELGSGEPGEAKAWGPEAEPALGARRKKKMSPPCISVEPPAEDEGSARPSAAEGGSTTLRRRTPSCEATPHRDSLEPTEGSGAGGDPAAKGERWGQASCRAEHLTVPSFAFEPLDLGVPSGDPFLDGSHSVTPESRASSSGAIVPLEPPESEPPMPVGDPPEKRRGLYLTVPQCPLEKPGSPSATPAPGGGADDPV
Experiment: Inhibition of human CaV3.2 expressed in HEK293 cells at -100 mV membrane potential by Ionworks HT assay
Format: cell-based
ASSAY_ENDPOINT: IC50 (nM)

• O=C1N(c2ccc(F)c(Cl)c2)C(c2ccccn2)C12CCN(c1nc3cc(F)c(C(F)(F)F)cc3[nH]1)CC2 (stereo in doubt; 52b) = 31
• CC[C@H](C)[C@H](NC(=O)N1CCC2(CC1)CN(C(C)C)C2c1ccc(F)cc1)C(=O)OC (mixture of isomers) = 256
• CC[C@H](C)[C@H](NC(=O)N1CCC2(CC1)C(=O)N(c1cccc(F)c1)C2c1ccc(Cl)cc1)C(=O)OC (stereo in doubt; 23b) = 872
• O=C(Nc1cc(F)cc(F)c1)N1CCC2(CC1)CN(c1cccc(F)c1)C2c1ccc(Cl)cc1 (stereo in doubt; 35b) = 3200
• N#Cc1cccc(NC(=O)N2CCC3(CC2)C(=O)N(c2cccc(Cl)c2)C3c2ccccn2)c1 (stereo in doubt; 43a) = 57
• CC[C@H](C)[C@H](NC(=O)N1CCC2(CC1)CN(C1CC1)C2c1ccc(Cl)cc1)C(=O)OC (mixture of isomers) = 325
• O=C(Nc1ccc(F)c(F)c1)N1CCC2(CC1)C(=O)N(c1cccc(Cl)c1)C2c1cccc[n+]1[O-] (stereo in doubt; form 1) = 698
• N#Cc1cccc(NC(=O)N2CCC3(CC2)C(=O)N(c2cccc(Cl)c2)C3c2ccccn2)c1 (stereo in doubt; 43b) = 855

(I) CN1C(=O)C2(CCN(C(=O)Nc3cc(F)cc(F)c3)CC2)C1c1ccc(Cl)cc1 (racemic)
(II) CC[C@H](C)[C@H](NC(=O)N1CCC2(CC1)CN(C(C)C)C2c1ccc(Cl)cc1)C(=O)OC (stereo in doubt; 2)
Problem: Between these two entries, I and II , state which has the higher IC50. Please identify the chosen entry by its label.
Solution: I
(I: 920 nM, II: 104 nM)

(I) O=C1N(c2cccc(Cl)c2)C(c2ccccn2)C12CCN(c1nc3cc(F)c(C(F)(F)F)cc3[nH]1)CC2 (stereo not drawn)
(II) CC[C@H](C)[C@H](NC(=O)N1CCC2(CC1)CN(C(C)C)C2c1ccc(Cl)cc1)C(=O)OC (stereo in doubt; 2b)
(III) CN1CC2(CCN(C(=O)Nc3cc(F)cc(F)c3)CC2)C1c1ccc(F)cc1 (racemic)
(IV) CCC(C)NC(=O)N1CCC2(CC1)C(=O)N(c1cccc(F)c1)C2c1ccc(Cl)cc1 (stereo not drawn)
(V) O=C(Nc1cccc(C(F)(F)F)c1)N1CCC2(CC1)C(=O)N(c1ccc(F)c(F)c1)C2c1ccccn1 (stereo in doubt; 411b)
Problem: Ranking field: IC50; order: falling. Answer by writing out the labels in the requested order.
Solution: IV, II, III, V, I
(IV: 1250 nM, II: 733 nM, III: 410 nM, V: 176 nM, I: 44 nM)

(a) CC[C@H](C)[C@H](NC(=O)N1CCC2(CC1)C(=O)N(c1cccc(F)c1)C2c1ccc(Cl)cc1)C(=O)OC (stereo in doubt; 23a)
(b) CC(C)N1CC2(CCN(C(=O)Nc3cc(F)cc(F)c3)CC2)C1c1ccc(F)cc1 (racemic)
Problem: Field: lower IC50 | Options: a / b Please identify the chosen entry by its label.
Solution: a

* * *

Biological target: UniProt P11712
Sequence (P11712 whole entry): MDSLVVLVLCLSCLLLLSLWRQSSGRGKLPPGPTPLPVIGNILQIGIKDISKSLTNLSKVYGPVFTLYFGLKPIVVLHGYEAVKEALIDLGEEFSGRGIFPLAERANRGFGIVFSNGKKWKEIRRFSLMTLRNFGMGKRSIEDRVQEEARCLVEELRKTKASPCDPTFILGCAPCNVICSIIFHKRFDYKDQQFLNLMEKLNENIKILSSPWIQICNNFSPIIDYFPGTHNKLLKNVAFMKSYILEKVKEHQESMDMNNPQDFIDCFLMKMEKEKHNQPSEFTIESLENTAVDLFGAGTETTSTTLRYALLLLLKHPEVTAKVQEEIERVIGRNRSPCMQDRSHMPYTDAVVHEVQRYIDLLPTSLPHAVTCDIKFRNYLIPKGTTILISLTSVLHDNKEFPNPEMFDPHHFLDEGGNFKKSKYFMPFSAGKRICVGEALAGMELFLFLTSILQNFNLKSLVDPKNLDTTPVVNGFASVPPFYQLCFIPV
Test: Inhibition of CYP2C9 coincubated with compound
Type: ADME
Details: read-out: INH
ASSAY_ENDPOINT: IC50

- CC(C)N1CC2(CCN(C(=O)Nc3cc(F)cc(F)c3)CC2)C1c1ccc(Cl)cc1 (stereo not drawn): > 30 µM
- CC(C)N1CC2(CCN(C(=O)Nc3ccc(F)c(F)c3)CC2)C1c1ccc(Cl)cc1 (stereo not drawn): > 30 µM

# ---- query compound ----
Problem: I have this compound here, CC[C@H](C)[C@H](NC(=O)N1CCC2(CC1)CN(C(C)C)C2c1ccc(Cl)cc1)C(=O)OC (stereo in doubt; 2) , and I need its recorded IC50.
Solution: > 30 µM

* * *

Target: Voltage-dependent T-type calcium channel subunit alpha-1H (Homo sapiens, UniProt O95180)
Assay: Inhibition of human CaV3.2 expressed in HEK293 cells at -100 mV membrane potential by whole cell path clamp method
Type: cell-based
pIC50: −log10 of the molar value.
ASSAY_ENDPOINT: pIC50

Study these solved cases before continuing.
• O=C1N(c2ccc(F)c(Cl)c2)C(c2ccccn2)C12CCN(c1nc3ccc(Cl)cc3[nH]1)CC2 (stereo not given) = 7.15
• CC[C@H](C)[C@H](NC(=O)N1CCC2(CC1)C(=O)N(c1cccc(F)c1)C2c1ccc(Cl)cc1)C(=O)OC (stereo in doubt; 23a) = 6.96

(1) CC[C@H](C)[C@H](NC(=O)N1CCC2(CC1)CN(C(C)C)C2c1ccc(Cl)cc1)C(=O)OC (stereo in doubt; 2b)
(2) CC(C)N1CC2(CCN(C(=O)Nc3cc(F)cc(F)c3)CC2)C1c1ccc(Cl)cc1 (stereo not given)
(3) CC[C@H](C)[C@H](NC(=O)N1CCC2(CC1)CN(C1CC1)C2c1ccc(Cl)cc1)C(=O)OC (mixture of isomers)
(4) N#Cc1cccc(N2C(=O)C3(CCN(C(=O)Nc4cc(F)cc(F)c4)CC3)C2c2ccccn2)c1 (stereo not given)
(5) O=C1N(c2ccc(F)c(Cl)c2)C(c2ccccn2)C12CCN(c1nc3cc(F)c(C(F)(F)F)cc3[nH]1)CC2 (stereo in doubt; 52b)
Problem: Ranking field: pIC50; order: falling. Answer by writing out the labels in the requested order.
Solution: 5, 2, 3, 1, 4

(1) O=C1N(c2cccc(Cl)c2)C(c2ccccn2)C12CCN(c1nc3cc(F)c(C(F)(F)F)cc3[nH]1)CC2 (stereo not given)
(2) O=C(Nc1ccc(F)c(F)c1)N1CCC2(CC1)C(=O)N(c1ccc(F)c(Cl)c1)C2c1ccccn1 (stereo in doubt; 40a)
(3) O=C(Nc1cc(F)cc(F)c1)N1CCC2(CC1)C(=O)N(c1cccc(Cl)c1)C2c1ccccn1 (stereo in doubt; 44a)
(4) CC[C@H](C)[C@H](NC(=O)N1CCC2(CC1)CN(C(C)C)C2c1ccc(Cl)cc1)C(=O)OC (stereo in doubt; 2a)
Problem: Rank items: key pIC50, increasing. Answer by writing out the labels in the requested order.
Solution: 2, 3, 4, 1

(a) O=C(Nc1cc(F)cc(F)c1)N1CCC2(CC1)CN(c1ccc(F)c(Cl)c1)C2c1ccccn1 (stereo in doubt; 38a)
(b) CC(C)N1CC2(CCN(C(=O)Nc3cc(F)cc(F)c3)CC2)C1c1ccc(F)cc1 (racemic)
Problem: Between these two entries, a and b , state which has the higher pIC50. Please identify the chosen entry by its label.
Solution: a
(a: 7.39, b: 6.00)

(a) CC(C)N1CC2(CCN(C(=O)Nc3ccc(F)c(F)c3)CC2)C1c1ccc(Cl)cc1 (stereo not given)
(b) O=C1N(c2ccc(F)c(Cl)c2)C(c2ccccn2)C12CCN(c1nc3cc(F)c(Cl)cc3[nH]1)CC2 (stereo not given)
Problem: Field: lower pIC50 | Options: a / b Please identify the chosen entry by its label.
Solution: a

* * *

Target: Voltage-dependent T-type calcium channel subunit alpha-1H (Homo sapiens)
Experiment: Inhibition of human CaV3.2 expressed in HEK293 cells at -100 mV membrane potential by Ionworks HT assay
Type: cell-based
ASSAY_ENDPOINT: IC50 (nM)

(A) O=C(Nc1cc(F)cc(F)c1)N1CCC2(CC1)CN(C1CC1)C2c1ccc(Cl)cc1 (racemic)
(B) O=C(Nc1cc(F)cc(F)c1)N1CCC2(CC1)C(=O)N(c1cccc(F)c1)C2c1ccc(Cl)cc1 (stereo in doubt; 36a)
Problem: Field: lower IC50 | Options: A / B Please identify the chosen entry by its label.
Solution: A
(A: 398 nM, B: 586 nM)

(P) CC[C@H](C)[C@H](NC(=O)N1CCC2(CC1)CN(c1cccc(F)c1)C2c1ccc(Cl)cc1)C(=O)OC (stereo in doubt; 22b)
(Q) O=C(Nc1cccc(C(F)(F)F)c1)N1CCC2(CC1)C(=O)N(c1ccc(F)c(F)c1)C2c1ccccn1 (stereo in doubt; 41a)
(R) O=C(Nc1cc(F)cc(F)c1)N1CCC2(CC1)C(=O)N(c1ccc(F)c(Cl)c1)C2c1ccccn1 (stereo in doubt; 39a)
(S) CC(C)N1CC2(CCN(C(=O)Nc3cc(F)cc(F)c3)CC2)C1c1ccc(Cl)cc1 (stereo not given)
(T) CC[C@H](C)[C@H](NC(=O)N1CCC2(CC1)CN(C)C2c1ccc(Cl)cc1)C(=O)OC (mixture of isomers)
Problem: Rank items: key IC50, increasing. Answer by writing out the labels in the requested order.
Solution: R, Q, S, T, P
(R: 4 nM, Q: 17 nM, S: 138 nM, T: 410 nM, P: 3200 nM)

(P) O=C(Nc1cc(F)cc(F)c1)N1CCC2(CC1)CN(c1cccc(F)c1)C2c1ccc(Cl)cc1 (stereo in doubt; 35a)
(Q) O=C(Nc1cc(F)cc(F)c1)N1CCC2(CC1)CN(c1ccc(F)c(Cl)c1)C2c1ccccn1 (stereo in doubt; 38b)
(R) CC[C@H](C)[C@H](NC(=O)N1CCC2(CC1)C(=O)N(c1cccc(F)c1)C2c1ccc(Cl)cc1)C(=O)OC#N (stereo not given in full)
(S) CC[C@H](C)[C@H](NC(=O)N1CCC2(CC1)C(=O)N(C)C2c1ccc(Cl)cc1)C(=O)OC (mixture of isomers)
Problem: Rank items: key IC50, increasing. Answer by writing out the labels in the requested order.
Solution: R, Q, S, P
(R: 35 nM, Q: 291 nM, S: 800 nM, P: 3500 nM)
